Where do the numbers come from? From patent US20070219210A1.

Target: Cyclooxygenase-2 (COX-2) (Homo sapiens)
Construct: purchased Cayman Chemical Company 560121
Sequence (P35354 18-604): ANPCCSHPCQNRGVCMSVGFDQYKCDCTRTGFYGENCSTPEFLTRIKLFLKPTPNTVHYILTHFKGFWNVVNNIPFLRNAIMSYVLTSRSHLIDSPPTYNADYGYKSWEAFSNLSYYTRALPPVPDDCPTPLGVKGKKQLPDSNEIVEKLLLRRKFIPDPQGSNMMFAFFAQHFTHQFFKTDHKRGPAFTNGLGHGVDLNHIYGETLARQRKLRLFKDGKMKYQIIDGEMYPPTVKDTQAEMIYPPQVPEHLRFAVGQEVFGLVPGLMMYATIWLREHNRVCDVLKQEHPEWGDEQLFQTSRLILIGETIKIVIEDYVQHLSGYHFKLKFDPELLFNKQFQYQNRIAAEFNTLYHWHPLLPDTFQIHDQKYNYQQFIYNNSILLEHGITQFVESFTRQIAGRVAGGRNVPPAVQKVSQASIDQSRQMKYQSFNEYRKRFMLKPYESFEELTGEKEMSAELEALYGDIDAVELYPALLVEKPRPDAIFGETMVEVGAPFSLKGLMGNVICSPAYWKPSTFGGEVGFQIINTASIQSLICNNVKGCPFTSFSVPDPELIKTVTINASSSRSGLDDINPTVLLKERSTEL
Assay: COX Inhibitor Screening Assay Kit (Cayman), PGF2α by ELISA, COX-2
Type: biochemical
Conditions: compound at 50 μm; relative to PGF2α produced without compound (100%)
Method: Inhibitory activity against COX-1 and COX-2 of the compounds produced in the Examples was measured by using COX Inhibitor Screening Assay Kit (Catalog Nos. 560101 and 560121) purchased from Cayman Chemical Company. […] A calibration curve was obtained by using the PG screening EIA standard, and the amount of PGF2α produced was determined from the absorption. Inhibitory rate at 50 μM of the compound of the Examples against COX-1 or COX-2 was calculated. […]
metric: Inhibitory effect against COX-2 at 50 μm (% inhibition)
Answers are plain numbers, in % inhibition.

Look over these answered cases.
- COc1ccc(-n2nc(C(=O)NC3(C(N)=O)CCCC3)cc2-c2ccccn2)cn1 [Example 48]: 8.7
- CC(C)(C)NC(=O)c1cc(-c2ccc(CO)cn2)n(-c2cccnc2)n1 [Example 26]: 8.2
- Cc1cnc(-c2cc(C(=O)NC(C)(C)C)nn2-c2cccnc2)cn1 [Example 65]: −1.6

Lookup: For the compound shown here, COc1ccc(-c2cc(C(=O)NC(C)(C)C)nn2-c2cccnc2)nc1 [Example 25] , give the reported Inhibitory effect against COX-2 at 50 μm (% inhibition).
Found: 8.2

----------
target: Cyclooxygenase-1 (COX-1) (Ovis aries, UniProt P05979); construct: purchased Cayman Chemical Company 560101; assay: COX Inhibitor Screening Assay Kit (Cayman), PGF2α by ELISA, COX-1; assay type: biochemical; settings: compound at 50 μm; relative to PGF2α produced without compound (100%)
Sequence (P05979 25-600): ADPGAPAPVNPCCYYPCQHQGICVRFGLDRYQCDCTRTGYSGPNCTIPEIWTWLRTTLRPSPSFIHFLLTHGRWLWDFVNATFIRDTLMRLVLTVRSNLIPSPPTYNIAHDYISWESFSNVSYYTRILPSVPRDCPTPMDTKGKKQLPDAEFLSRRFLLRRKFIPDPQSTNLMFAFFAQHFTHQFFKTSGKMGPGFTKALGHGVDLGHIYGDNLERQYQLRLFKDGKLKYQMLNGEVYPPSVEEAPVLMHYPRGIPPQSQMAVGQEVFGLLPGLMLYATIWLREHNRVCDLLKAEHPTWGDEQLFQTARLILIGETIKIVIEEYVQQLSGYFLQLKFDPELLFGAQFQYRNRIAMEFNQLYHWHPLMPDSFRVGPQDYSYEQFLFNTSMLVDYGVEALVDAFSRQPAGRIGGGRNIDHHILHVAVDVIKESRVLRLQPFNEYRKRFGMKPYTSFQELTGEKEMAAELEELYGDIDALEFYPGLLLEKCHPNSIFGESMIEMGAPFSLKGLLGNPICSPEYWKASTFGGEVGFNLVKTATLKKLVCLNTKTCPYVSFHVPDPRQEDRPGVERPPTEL
metric: Inhibitory effect against COX-1 at 50 μm (% inhibition)
Answers are plain numbers, in % inhibition.

• COc1ccc(-n2nc(C(=O)NC(C)(C)C)cc2-c2cc(CO)ccn2)cn1 = −1.5
• CC(C)(C)NC(=O)c1cc(-c2ccc(Cl)cn2)n(-c2cccnc2)n1 = 5.4
• CC(C)(C)NC(=O)c1cc(-c2ccc(O)cn2)n(-c2cccnc2)n1 = 0.8
• COc1ccc(-n2nc(C(=O)NCC3CCCO3)cc2-c2ccccn2)cn1 (stereo not drawn) = 4.3
• CC(C)(CF)NC(=O)c1cc(-c2cnc(N)cn2)n(-c2cccnc2)n1 = −2.8
• CC(=O)NCc1ccc(-c2cc(C(=O)NC(C)(C)C)nn2-c2cccnc2)nc1 = 0.7
• COc1ccc(-n2nc(C(=O)NC(C)(C)C)cc2-c2cnccn2)cn1 = 13.9
• COCC(C)(C)NC(=O)c1cc(-c2ccccn2)n(-c2ccc(OC)nn2)n1 = 72

Now look at this entry.
Lookup: For the compound shown here, COc1cnc(-n2nc(C(=O)NC(C)(C)C)cc2-c2ccccn2)cn1 , give the reported Inhibitory effect against COX-1 at 50 μm (% inhibition).
Found: 39.5
